These measurements were taken from paper PMC8474115.

ASSAY_ENDPOINT: IC50 (nM)
All answers are understood in nM, so give the number only.

Ask: Dopamine Transporter (DAT) (Homo sapiens, UniProt Q01959) / IC50 / O=S(=O)(c1cccc(F)c1)n1ccc2c(N3CCNCC3)nc3ccccc3c21 : value?
Result: 1370

* * *

Where a name gives a salt, the structure may show the parent alone.
What melting point was measured for each of the following?

Ask: Need melting point of O=S(=O)(c1ccc(F)cc1)n1ccc2c(N3CCNCC3)nc3ccccc3c21 (as salt: hydrochloride) , thanks.
Result: 172 to 174 °C

Ask: Need melting point of O=S(=O)(c1cccc(C(F)(F)F)c1)n1ccc2c(N3CCNCC3)nc3ccccc3c21 (as salt: hydrochloride) , thanks.
Result: 182 to 185 °C

Ask: Need melting point of CC(C)c1ccc(S(=O)(=O)n2ccc3c(N4CCNCC4)nc4ccccc4c32)cc1 (as salt: hydrochloride) , thanks.
Result: 212 to 214 °C

Ask: Need melting point of O=S(=O)(c1ccc(Cl)c(Cl)c1)n1ccc2c(N3CCNCC3)nc3ccccc3c21 (as salt: hydrochloride) , thanks.
Result: 203 to 205 °C

Ask: Need melting point of CN1CCN(c2nc3ccccc3c3c2ccn3S(=O)(=O)c2ccccc2)CC1 (as salt: hydrochloride) , thanks.
Result: 127 to 129 °C

Ask: Need melting point of O=S(=O)(c1cccc2ccccc12)n1ccc2c(N3CCNCC3)nc3ccccc3c21 (as salt: hydrochloride) , thanks.
Result: 218 to 220 °C

Ask: Need melting point of O=S(=O)(c1ccc(C(F)(F)F)cc1)n1ccc2c(N3CCNCC3)nc3ccccc3c21 (as salt: hydrochloride) , thanks.
Result: 165 to 167 °C

Ask: Need melting point of O=S(=O)(c1cc(F)ccc1F)n1ccc2c(N3CCNCC3)nc3ccccc3c21 (as salt: hydrochloride) , thanks.
Result: 204 to 206 °C

Ask: Need melting point of O=S(=O)(c1ccc(F)c(F)c1)n1ccc2c(N3CCNCC3)nc3ccccc3c21 (as salt: hydrochloride) , thanks.
Result: 180 to 182 °C

Ask: Need melting point of O=S(=O)(c1ccccc1Cl)n1ccc2c(N3CCNCC3)nc3ccccc3c21 (as salt: hydrochloride) , thanks.
Result: 157 to 159 °C

Ask: Need melting point of O=S(=O)(c1ccccc1)n1ccc2c(N3CCNCC3)nc3ccccc3c21 (as salt: hydrochloride) , thanks.
Result: 130 to 132 °C

Ask: Need melting point of O=S(=O)(c1ccccc1)n1ccc2c(N[C@H]3CCNC3)nc3ccccc3c21 (as salt: hydrochloride) , thanks.
Result: 220 to 222 °C

* * *

What antagonist effect was measured for each of the following?
TARGET_ENTITY: h5-HT6R (Homo sapiens, UniProt P50406)
Sequence (P50406 whole entry): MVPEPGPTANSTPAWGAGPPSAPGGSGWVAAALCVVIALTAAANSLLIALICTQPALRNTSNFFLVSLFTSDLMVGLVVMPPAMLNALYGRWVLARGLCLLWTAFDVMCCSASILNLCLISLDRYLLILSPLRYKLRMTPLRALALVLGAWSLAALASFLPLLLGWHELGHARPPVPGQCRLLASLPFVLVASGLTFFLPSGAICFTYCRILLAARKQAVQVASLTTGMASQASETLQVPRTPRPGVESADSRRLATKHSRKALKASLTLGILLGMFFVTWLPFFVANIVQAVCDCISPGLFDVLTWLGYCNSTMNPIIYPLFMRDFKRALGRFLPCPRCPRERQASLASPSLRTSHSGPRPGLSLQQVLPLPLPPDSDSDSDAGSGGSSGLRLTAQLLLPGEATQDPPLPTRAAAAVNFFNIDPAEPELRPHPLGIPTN
PROTOCOL_SUMMARY: Inhibition of 5-CT-induced cAMP production in 1321N1 cells expressing h5-HT6R
Format: cell-based
Parameters: host or cells: 1321N1
APPLIED_CONDITIONS: 10^–6 M, percent inhibition of control agonist response
All answers are understood in %, so give the number only.

Ask: Need antagonist effect of CC(C)c1ccc(S(=O)(=O)n2ccc3c(N4CCNCC4)nc4ccccc4c32)cc1 , thanks.
Result: 65

Ask: Need antagonist effect of O=S(=O)(c1ccccc1Br)n1ccc2c(N3CCNCC3)nc3ccccc3c21 , thanks.
Result: 69

Ask: Need antagonist effect of O=S(=O)(c1ccc(C(F)(F)F)cc1)n1ccc2c(N3CCNCC3)nc3ccccc3c21 , thanks.
Result: 63

Ask: Need antagonist effect of O=S(=O)(c1ccc(F)cc1)n1ccc2c(N3CCNCC3)nc3ccccc3c21 , thanks.
Result: 72

* * *

What antagonist effect was measured for each of the following?
TARGET_ENTITY: 5-HT3R (Cavia porcellus, UniProt O70212)
Sequence (O70212 20-490): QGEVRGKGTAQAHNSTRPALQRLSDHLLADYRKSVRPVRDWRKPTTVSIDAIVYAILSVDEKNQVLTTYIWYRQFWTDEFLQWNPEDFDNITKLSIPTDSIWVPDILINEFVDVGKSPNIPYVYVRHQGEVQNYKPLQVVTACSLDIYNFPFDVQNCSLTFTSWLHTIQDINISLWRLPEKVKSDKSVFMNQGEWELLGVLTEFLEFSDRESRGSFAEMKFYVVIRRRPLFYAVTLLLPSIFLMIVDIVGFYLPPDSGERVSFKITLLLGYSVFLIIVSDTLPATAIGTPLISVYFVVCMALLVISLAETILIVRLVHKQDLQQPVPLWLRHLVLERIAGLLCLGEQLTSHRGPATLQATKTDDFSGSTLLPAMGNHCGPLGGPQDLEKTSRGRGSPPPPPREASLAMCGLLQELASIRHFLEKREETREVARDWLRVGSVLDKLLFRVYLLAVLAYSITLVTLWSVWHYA
APPLIED_CONDITIONS: 100 nM; percent inhibition of response to 5-HT 3 μM (contraction of guinea pig ileum)
All answers are understood in %, so give the number only.

Ask: Need antagonist effect of O=S(=O)(c1ccccc1)n1ccc2c(N3CCNCC3)nc3ccccc3c21 [Compound 7] , thanks.
Result: 26

Ask: Need antagonist effect of CN1CCN(c2nc3ccccc3c3c2ccn3S(=O)(=O)c2cccc(F)c2)CC1 [Compound 12] , thanks.
Result: 74

Ask: Need antagonist effect of CN1CCN(c2nc3ccccc3c3c2ccn3S(=O)(=O)c2ccccc2)CC1 [Compound 6] , thanks.
Result: 28

Ask: Need antagonist effect of O=S(=O)(c1cccc(Cl)c1)n1ccc2c(N3CCNCC3)nc3ccccc3c21 [Compound 18] , thanks.
Result: 11

* * *

TARGET_ENTITY: Muscarinic M1 (Homo sapiens)
Sequence (P11229 1-460): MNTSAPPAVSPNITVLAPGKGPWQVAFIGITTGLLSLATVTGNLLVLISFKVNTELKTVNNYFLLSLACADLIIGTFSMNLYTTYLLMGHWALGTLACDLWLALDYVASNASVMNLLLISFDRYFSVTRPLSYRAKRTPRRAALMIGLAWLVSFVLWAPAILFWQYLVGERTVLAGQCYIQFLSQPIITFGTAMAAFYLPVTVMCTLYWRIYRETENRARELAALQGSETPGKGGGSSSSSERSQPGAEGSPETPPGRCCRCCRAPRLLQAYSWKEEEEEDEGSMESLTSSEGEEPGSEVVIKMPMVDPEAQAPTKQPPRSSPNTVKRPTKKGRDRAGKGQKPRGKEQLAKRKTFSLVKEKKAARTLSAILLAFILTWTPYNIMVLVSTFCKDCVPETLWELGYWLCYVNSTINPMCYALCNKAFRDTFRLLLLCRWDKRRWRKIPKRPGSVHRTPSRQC
ASSAY_ENDPOINT: pKi
Friendly reminder that pKi comes from taking -log10 of the concentration in mol/L.

Ask: Muscarinic M1 (Homo sapiens) / pKi / O=S(=O)(c1cccc(F)c1)n1ccc2c(N3CCNCC3)nc3ccccc3c21 : value?
Result: 5.71

* * *

TARGET_ENTITY: Adrenergic α2A (Homo sapiens)
Sequence (P08913 1-465): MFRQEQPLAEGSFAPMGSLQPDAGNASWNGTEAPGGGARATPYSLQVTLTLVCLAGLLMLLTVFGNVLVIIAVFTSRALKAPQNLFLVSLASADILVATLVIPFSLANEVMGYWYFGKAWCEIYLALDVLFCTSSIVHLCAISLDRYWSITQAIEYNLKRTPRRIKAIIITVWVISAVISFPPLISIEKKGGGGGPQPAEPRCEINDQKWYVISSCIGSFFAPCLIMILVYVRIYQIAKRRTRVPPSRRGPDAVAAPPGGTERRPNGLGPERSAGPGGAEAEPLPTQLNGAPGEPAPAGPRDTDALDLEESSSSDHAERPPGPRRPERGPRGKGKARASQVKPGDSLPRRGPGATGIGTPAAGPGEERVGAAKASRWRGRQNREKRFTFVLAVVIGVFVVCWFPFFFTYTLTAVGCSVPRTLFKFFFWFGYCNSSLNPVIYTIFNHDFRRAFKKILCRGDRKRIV
ASSAY_ENDPOINT: IC50
Answer format: value, then unit.

Ask: Need IC50 of O=S(=O)(c1cccc(F)c1)n1ccc2c(N3CCNCC3)nc3ccccc3c21 [FPPQ] , thanks.
Result: 220 nM

* * *

TARGET_ENTITY: Serotonin 5-HT2B (Homo sapiens, UniProt P41595)
Sequence (P41595 whole entry): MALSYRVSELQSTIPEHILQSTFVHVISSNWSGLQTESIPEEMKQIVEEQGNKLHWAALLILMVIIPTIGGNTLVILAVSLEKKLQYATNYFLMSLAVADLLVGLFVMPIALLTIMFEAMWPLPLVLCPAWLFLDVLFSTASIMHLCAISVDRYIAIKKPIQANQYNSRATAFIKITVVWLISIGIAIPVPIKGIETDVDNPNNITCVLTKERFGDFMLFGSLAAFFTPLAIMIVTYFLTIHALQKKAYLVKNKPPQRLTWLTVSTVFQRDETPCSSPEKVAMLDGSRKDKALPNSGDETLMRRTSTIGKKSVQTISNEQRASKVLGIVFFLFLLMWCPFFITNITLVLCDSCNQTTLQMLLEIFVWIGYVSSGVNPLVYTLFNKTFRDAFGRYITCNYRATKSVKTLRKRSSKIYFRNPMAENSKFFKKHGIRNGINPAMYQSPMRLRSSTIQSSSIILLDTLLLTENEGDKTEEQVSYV
ASSAY_ENDPOINT: Ki

Ask: Need Ki of O=S(=O)(c1cccc(F)c1)n1ccc2c(N3CCNCC3)nc3ccccc3c21 [FPPQ] , thanks.
Result: 170 nM

* * *

TARGET_ENTITY: 5-HT3R (Cavia porcellus)
APPLIED_CONDITIONS: 300 nM; percent inhibition of response to 5-HT 3 μM (contraction of guinea pig ileum)
ASSAY_ENDPOINT: antagonist effect (%)
All answers are understood in %, so give the number only.

Ask: Need antagonist effect of CN1CCN(c2nc3ccccc3c3c2ccn3S(=O)(=O)c2ccccc2)CC1 [Compound 6] , thanks.
Result: 48

Ask: Need antagonist effect of COc1cccc(S(=O)(=O)n2ccc3c(N4CCNCC4)nc4ccccc4c32)c1 [Compound 21] , thanks.
Result: 73

Ask: Need antagonist effect of O=S(=O)(c1ccccc1)n1ccc2c(N3CCNCC3)nc3ccccc3c21 [Compound 7] , thanks.
Result: 60

* * *

What pKi was measured for each of the following?
Friendly reminder that pKi comes from taking -log10 of the concentration in mol/L.

Ask: h5-HT7b (Homo sapiens, UniProt P34969) / pKi / O=S(=O)(c1cccc(Cl)c1)n1ccc2c(N3CCNCC3)nc3ccccc3c21 [Compound 18] : value?
Result: 5.75

Ask: h5-HT7b (Homo sapiens, UniProt P34969) / pKi / Cc1cccc(S(=O)(=O)n2ccc3c(N4CCNCC4)nc4ccccc4c32)c1 [Compound 20] : value?
Result: 5.38

* * *

TARGET_ENTITY: CYP2C19 (Homo sapiens, UniProt P33261)
Sequence (P33261 whole entry): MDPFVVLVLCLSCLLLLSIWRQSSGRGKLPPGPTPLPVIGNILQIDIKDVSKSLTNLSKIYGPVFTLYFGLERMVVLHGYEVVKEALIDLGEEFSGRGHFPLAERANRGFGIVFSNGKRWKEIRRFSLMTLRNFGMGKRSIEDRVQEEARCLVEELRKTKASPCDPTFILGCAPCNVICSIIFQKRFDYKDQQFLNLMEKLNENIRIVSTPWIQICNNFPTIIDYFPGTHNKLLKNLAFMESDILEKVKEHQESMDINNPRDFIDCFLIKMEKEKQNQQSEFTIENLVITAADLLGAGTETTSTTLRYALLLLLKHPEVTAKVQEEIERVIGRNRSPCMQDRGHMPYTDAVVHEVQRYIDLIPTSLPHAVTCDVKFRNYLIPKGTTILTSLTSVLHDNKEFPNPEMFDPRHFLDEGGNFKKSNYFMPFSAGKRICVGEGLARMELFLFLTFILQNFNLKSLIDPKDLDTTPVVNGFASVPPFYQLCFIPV
PROTOCOL_SUMMARY: Cytochrome P450 inhibition (Eurofins)
ASSAY_ENDPOINT: IC50
Answer format: value, then unit.

Ask: CYP2C19 (Homo sapiens, UniProt P33261) / IC50 / O=S(=O)(c1cccc(F)c1)n1ccc2c(N3CCNCC3)nc3ccccc3c21 [FPPQ] : value?
Result: 10 µM
